# System: human PILRA G78 on cells (human, UniProt Q9UKJ1 20-303)
# Sequence (Q9UKJ1 20-303 R78G limits assumed): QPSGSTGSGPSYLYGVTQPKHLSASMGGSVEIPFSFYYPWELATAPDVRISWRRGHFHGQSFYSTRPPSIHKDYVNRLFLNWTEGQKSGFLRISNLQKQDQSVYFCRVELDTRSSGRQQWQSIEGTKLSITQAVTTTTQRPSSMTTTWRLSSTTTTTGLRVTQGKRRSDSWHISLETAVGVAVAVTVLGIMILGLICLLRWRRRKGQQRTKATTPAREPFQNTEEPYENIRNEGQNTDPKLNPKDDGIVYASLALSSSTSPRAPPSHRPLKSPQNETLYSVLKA
# Method: cell-based or functional assay
Readout: pSTAT3 S727 induction, Fold Over Background

Anti-PILRA antibody clone 12 (antibody, V domains shown, Humanized; also called Ab.12) VH: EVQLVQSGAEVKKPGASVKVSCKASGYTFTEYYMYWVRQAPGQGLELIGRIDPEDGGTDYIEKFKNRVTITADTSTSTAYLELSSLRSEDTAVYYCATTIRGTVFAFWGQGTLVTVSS VL: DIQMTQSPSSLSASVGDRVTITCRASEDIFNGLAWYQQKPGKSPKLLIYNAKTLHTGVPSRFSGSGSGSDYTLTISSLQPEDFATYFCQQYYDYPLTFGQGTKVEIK | 31.6 fold
Anti-PILRA antibody clone 23 (antibody, V domains shown, Humanized; also called Ab.23) VH: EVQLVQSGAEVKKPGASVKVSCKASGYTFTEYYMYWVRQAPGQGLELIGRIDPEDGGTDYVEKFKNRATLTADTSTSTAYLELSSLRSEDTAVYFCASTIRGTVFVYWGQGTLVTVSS VL: DIQMTQSPSSLSASVGDRVTITCRPSEDIYNGLAWYQQKPGKAPKLLIYNANSLHTGVPSRFSGSGSGTDYTLTISSLQPEDFATYYCQQYYDYPLTFGQGTKVEIK | 23.6 fold
Anti-PILRA antibody clone 15 (antibody, V domains shown, Humanized; also called Ab.15) VH: EVQLVQSGAEVKKPGASVKVSCKASGYTFTEYYMYWVRQAPGQGLELIGRIDPEDGGTDYIEKFKNRSTLTADTSTSTAYLELSSLRSEDTAVYFCATTIRGTVFAFWGQGTLVTVSS VL: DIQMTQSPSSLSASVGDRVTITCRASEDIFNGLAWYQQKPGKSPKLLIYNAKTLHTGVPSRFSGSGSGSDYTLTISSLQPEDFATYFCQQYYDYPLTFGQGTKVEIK | 32.2 fold
Anti-PILRA antibody clone 7 (antibody, V domains shown) VH: EVQLQQSGPELQRPGASVKLSCKASGYTFTEYYMYWVKQRPKQGLELMGRIDPEDGGTDYVEKFKNKATLTADTSSNTAYMQLSSLTSEDTATYFCASTIRGTVFVYWGQGTLVTVSS VL: DIQMTQSPASLSASLGETVTIECRPSEDIYNGLAWYQQKPGESPQLLIYNANSLHTGVPSRFSGSGSGTQYSLKINSLQSEDVASYFCQQYYDYPLTFGSGTKLEIK | 26.6 fold

Values from patent US20260109763A1
